In this section we review reported Activity values for a set of molecules.
tested on: Mycobacterium tuberculosis; test: Inhibition of Mycobacterium tuberculosis InhA assessed as remaining activity at 20 uM using trans-2-dodecenoyl-coenzyme A as substrate relative to control
Give the number; % is assumed, so skip it.

> print(dat)
         compound.smiles  reading
1  CCCc1cn(CC(=O)OCC)nn1       69

## Input Looking for the measured Activity of CCCCCCCCc1cn(CC(=O)OCC)nn1 , can you help?
## Output 90.1

## Input Looking for the measured Activity of CCCCCCCCCCc1cn(CC(=O)OCC)nn1 , can you help?
## Output 99.3

## Input Looking for the measured Activity of CCCCCc1cn(CC(=O)OCC)nn1 , can you help?
## Output 73.2
